measure_name: IC50

Any idea what IC50 came out for CO[C@]12C(=O)CC[C@@]1(CO)C2/C(C)=C/CC=C(C)C (stereo partly specified) [Fumarranol Analog, 8] on Methionine aminopeptidase 2 (Plasmodium falciparum, UniProt Q8TA23)?
> 500 µM

Any idea what IC50 came out for `CO[C@@H]1[C@H](OC(=O)NC(=O)CCl)CC[C@]2(CO2)[C@H]1[C@@]1(C)O[C@@H]1CC=C(C)C` on Methionine aminopeptidase 2 (Plasmodium falciparum, UniProt Q8TA23)?
2 µM

Any idea what IC50 came out for CO[C@]12C(=O)CC[C@@]1(CBr)C2[C@@]1(C)O[C@@H]1CC=C(C)C (stereo partly specified) [Fumarranol Analog, 6] on Methionine aminopeptidase 2 (Plasmodium falciparum, UniProt Q8TA23)?
> 500 µM

Any idea what IC50 came out for CO[C@]12C(=O)/C(=C/c3ccco3)C[C@@]1(CO)C2[C@@]1(C)O[C@@H]1CC=C(C)C (stereo partly specified) [Fumarranol Analog, 9] on Methionine aminopeptidase 2 (Plasmodium falciparum, UniProt Q8TA23)?
> 500 µM

Any idea what IC50 came out for CO[C@]12C(=O)CC[C@@]1(C=O)C2[C@@]1(C)O[C@@H]1CC=C(C)C (stereo partly specified) [Fumarranol Analog, 7] on Methionine aminopeptidase 2 (Plasmodium falciparum, UniProt Q8TA23)?
> 500 µM

Any idea what IC50 came out for CO[C@@]12C([C@@]3(C)O[C@@H]3CC=C(C)C)[C@]1(CO)CC[C@H]2O (stereo partly specified) [Fumarranol Analog, 10] on Methionine aminopeptidase 2 (Plasmodium falciparum, UniProt Q8TA23)?
> 500 µM
